System: S180 tumor
Assay: Biodistribution in tumor-bearing mice
Assay type: in vivo
Conditions: 120 min, i.v., mice bearing S180 tumor, mean ± SD
READOUT TYPE: Liver (% ID/g)
Lab book: enter the figure in % ID/g, no units written.

*Q* Form field - read-out: Liver; system: S180 tumor; submitted item: O=C(Cc1ccc(C[N+]#[C][99Tc+]([C]#[N+]Cc2ccc(CC(=O)NC3C(O)OC(CO)C(O)C3O)cc2)([C]#[N+]Cc2ccc(CC(=O)NC3C(O)OC(CO)C(O)C3O)cc2)([C]#[N+]Cc2ccc(CC(=O)NC3C(O)OC(CO)C(O)C3O)cc2)([C]#[N+]Cc2ccc(CC(=O)NC3C(O)OC(CO)C(O)C3O)cc2)[C]#[N+]Cc2ccc(CC(=O)NC3C(O)OC(CO)C(O)C3O)cc2)cc1)NC1C(O)OC(CO)C(O)C1O (centres unmarked) [^99mTc-4-CNMBDG]
*A* 2.43

*Q* Quick check: Liver on S180 tumor, item O=C(NC1C(O)OC(CO)C(O)C1O)c1ccc(C[N+]#[C][99Tc+]([C]#[N+]Cc2ccc(C(=O)NC3C(O)OC(CO)C(O)C3O)cc2)([C]#[N+]Cc2ccc(C(=O)NC3C(O)OC(CO)C(O)C3O)cc2)([C]#[N+]Cc2ccc(C(=O)NC3C(O)OC(CO)C(O)C3O)cc2)([C]#[N+]Cc2ccc(C(=O)NC3C(O)OC(CO)C(O)C3O)cc2)[C]#[N+]Cc2ccc(C(=O)NC3C(O)OC(CO)C(O)C3O)cc2)cc1 (centres unmarked) [^99mTc-CNPEDG, reference compound] ?
*A* 2.52
